Below, each entry is listed with its recorded IC50.
measured.on: full-length beta-Catenin (Uniprot ID P35222) (Homo sapiens, UniProt P35222)
Construct: 10 nM full-length beta-Catenin (Uniprot ID P35222)
Sequence (P35222 whole entry): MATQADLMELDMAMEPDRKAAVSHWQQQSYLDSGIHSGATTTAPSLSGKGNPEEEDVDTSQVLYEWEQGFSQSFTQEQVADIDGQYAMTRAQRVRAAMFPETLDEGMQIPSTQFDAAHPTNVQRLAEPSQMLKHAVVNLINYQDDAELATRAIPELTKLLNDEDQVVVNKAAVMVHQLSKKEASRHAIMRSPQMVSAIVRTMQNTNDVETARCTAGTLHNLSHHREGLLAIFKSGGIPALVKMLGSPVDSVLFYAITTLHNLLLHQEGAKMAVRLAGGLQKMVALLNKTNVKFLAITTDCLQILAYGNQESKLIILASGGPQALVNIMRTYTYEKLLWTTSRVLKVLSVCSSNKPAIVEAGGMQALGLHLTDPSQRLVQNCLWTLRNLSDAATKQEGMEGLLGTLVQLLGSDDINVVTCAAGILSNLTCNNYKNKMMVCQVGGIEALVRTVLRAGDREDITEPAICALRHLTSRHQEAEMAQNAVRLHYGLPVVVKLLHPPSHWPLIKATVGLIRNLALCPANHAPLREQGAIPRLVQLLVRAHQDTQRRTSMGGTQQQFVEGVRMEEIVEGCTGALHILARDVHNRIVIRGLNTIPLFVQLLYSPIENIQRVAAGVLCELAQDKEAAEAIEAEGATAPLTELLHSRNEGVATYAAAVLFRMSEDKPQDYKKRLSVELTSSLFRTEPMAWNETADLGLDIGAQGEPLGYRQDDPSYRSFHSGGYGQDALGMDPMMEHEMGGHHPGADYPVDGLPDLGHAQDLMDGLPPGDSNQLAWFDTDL
assay.info: Fluorescence polarization IC50 (beta-catenin / 5FAM-TCF4 10-53 competition)
Format: binding
cond: Table E2-1; read-out: beta-Catenin FP IC50
Numeric only. Scale: µM

Completed entries (count: 4):
>>> value_measured("CC(=O)N1CCC[C@]12CC=CCCCC1(CCCC=CCCCCCC[C@@](C)(C(=O)N[C@@H](Cc3ccccc3)C(=O)N[C@@H](Cc3c[nH]c4ccccc34)C(=O)N[C@@H](CCC(N)=O)C(N)=O)NC(=O)[C@H](C(C)C)NC(=O)[C@H](Cc3cccc(C)c3)NC(=O)[C@H](C)NC(=O)[C@H](C)NC(=O)[C@H](CCC(=O)O)NC(=O)[C@H](CC(=O)O)NC1=O)NC(=O)[C@H](C)NC(=O)[C@H](CC(=O)O)NC2=O (stereo partly shown)")
1.75
>>> value_measured("CC(=O)N1CCC[C@]12CC=CCCCC1(CCCC=CCCCCCC[C@@](C)(C(=O)N[C@@H](Cc3ccccc3)C(=O)N[C@@H](Cc3ccc4ccccc4c3)C(=O)N[C@@H](CCC(N)=O)C(N)=O)NC(=O)[C@H](C(C)C)NC(=O)[C@H](Cc3ccccc3)NC(=O)[C@H](C)NC(=O)[C@H](C)NC(=O)[C@H](CCC(=O)O)NC(=O)[C@H](CC(=O)O)NC1=O)NC(=O)[C@H](C)NC(=O)[C@H](CC(=O)O)NC2=O (stereo partly shown)")
2.27
>>> value_measured("CC(=O)N1CCC[C@]12CC=CCCCC1(CCCC=CCCCCCC[C@@](C)(C(=O)N[C@@H](Cc3ccccc3)C(=O)N[C@@H](Cc3c[nH]c4ccccc34)C(=O)N[C@@H](C)C(N)=O)NC(=O)[C@H](C(C)C)NC(=O)[C@H](Cc3ccccc3)NC(=O)[C@H](C)NC(=O)[C@H](C)NC(=O)[C@H](CC(=O)O)NC(=O)[C@H](CC(=O)O)NC1=O)NC(=O)[C@H](C)NC(=O)[C@H](CC(=O)O)NC2=O (stereo partly shown) [I-291]")
3.13
>>> value_measured("CC[C@H](C)[C@H](NC(=O)[C@H](CC(=O)O)NC(=O)[C@H](C)NC(C)=O)C(=O)N[C@]1(C)CCN(C)C(=O)OCC=CCCCCC[C@@](C)(C(=O)N[C@@H](Cc2ccccc2)C(=O)N[C@@H](Cc2c[nH]c3ccccc23)C(=O)N[C@@H](Cc2c[nH]cn2)C(N)=O)NC(=O)[C@H](C)NC(=O)[C@H](Cc2ccccc2)NC(=O)[C@H](C)NC(=O)[C@H](C)NC(=O)[C@H](CCC(=O)O)NC(=O)[C@H](CC(=O)O)NC1=O")
5

Exercise: Find IC50 (full-length beta-Catenin (Uniprot ID P35222) (Homo sapiens, UniProt P35222)) for the entry CC(=O)N1CCC[C@]12CC=CCCCC1(CCCC=CCCCCCC[C@@](C)(C(=O)N[C@@H](Cc3ccccc3)C(=O)N[C@@H](Cc3c[nH]c4ccccc34)C(=O)N[C@@H](C)C(N)=O)NC(=O)[C@H](C(C)C)NC(=O)[C@H](Cc3ccccc3)NC(=O)[C@H](C)NC(=O)[C@H](C)NC(=O)[C@H](CCC(=O)O)NC(=O)[C@H](CC(=O)O)NC1=O)NC(=O)[C@H](C)NC(=O)[C@H](CC(=O)O)NC2=O (stereo partly shown)
Key: 1.87

Exercise: What would you report for CC(=O)N1CCC[C@]12CC=CCCCC1(CCCC=CCCCCCC[C@@](C)(C(=O)N[C@@H](Cc3ccccc3)C(=O)N[C@@H](Cc3c[nH]c4ccccc34)C(=O)N[C@@H](CCC(N)=O)C(N)=O)NC(=O)[C@H](C(C)C)NC(=O)[C@H](Cc3ccc(F)cc3)NC(=O)[C@H](C)NC(=O)[C@H](C)NC(=O)[C@H](CC(=O)O)NC(=O)[C@H](CC(=O)O)NC1=O)NC(=O)[C@H](C)NC(=O)[C@H](CC(=O)O)NC2=O (stereo partly shown) ?
Key: 5

Exercise: What do you have for CC(=O)N1CCC[C@]12CC=CCCCC1(CCCC=CCCCCCC[C@@](C)(C(=O)N[C@@H](Cc3ccccc3)C(=O)N[C@@H](Cc3c[nH]c4ccccc34)C(=O)N[C@@H](CCC(N)=O)C(N)=O)NC(=O)[C@H](C(C)C)NC(=O)[C@H](Cc3cccs3)NC(=O)[C@H](C)NC(=O)[C@H](C)NC(=O)[C@H](CC(=O)O)NC(=O)[C@H](CC(=O)O)NC1=O)NC(=O)[C@H](C)NC(=O)[C@H](CC(=O)O)NC2=O (stereo partly shown) ?
Key: 1.31

Exercise: Also check CC(=O)N1CCC[C@]12CC=CCCCC1(CCCC=CCCCCCC[C@@](C)(C(=O)N[C@@H](Cc3ccccc3)C(=O)N[C@@H](Cc3c[nH]c4ccccc34)C(=O)N[C@@H](C)C(N)=O)NC(=O)[C@H](CCC(N)=O)NC(=O)[C@H](Cc3ccccc3)NC(=O)[C@H](C)NC(=O)[C@H](C)NC(=O)[C@H](CC(=O)O)NC(=O)[C@H](CC(=O)O)NC1=O)NC(=O)[C@H](C)NC(=O)[C@H](CC(=O)O)NC2=O (stereo partly shown)
Key: 3.98

Exercise: Okay, and CC(=O)N1CCC[C@]12CC=CCCCC1(CCCC=CCCCCCC[C@@](C)(C(=O)N[C@@H](Cc3ccccc3)C(=O)N[C@@H](Cc3csc4ccccc34)C(=O)N[C@@H](CCC(N)=O)C(N)=O)NC(=O)[C@H](C(C)C)NC(=O)[C@H](Cc3ccccc3)NC(=O)[C@H](C)NC(=O)[C@H](C)NC(=O)[C@H](CCC(=O)O)NC(=O)[C@H](CC(=O)O)NC1=O)NC(=O)[C@H](C)NC(=O)[C@H](CC(=O)O)NC2=O (stereo partly shown) ?
Key: 0.147

Exercise: How about this compound: CC(=O)N1CCC[C@]12CC=CCCCC1(CCCC=CCCCCCC[C@@](C)(C(=O)N[C@@H](Cc3ccccc3)C(=O)N[C@@H](Cc3csc4ccccc34)C(=O)N[C@@H](CCC(N)=O)C(N)=O)NC(=O)[C@H](CCC(N)=O)NC(=O)[C@H](Cc3ccccc3)NC(=O)[C@H](C)NC(=O)[C@H](C)NC(=O)[C@H](CC(=O)O)NC(=O)[C@H](CC(=O)O)NC1=O)NC(=O)[C@H](C)NC(=O)[C@H](CC(=O)O)NC2=O (stereo partly shown)
Key: 0.13
